Cited source: paper PMC7368294

Target: Dα1/Dα2/Dβ1 nAChR (Drosophila melanogaster, UniProt P04755+P09478+P17644)
Assay: cell-based
Set-up: species or system Xenopus laevis oocytes

[
  {
    "CHEMICAL_STRUCTURE": "CN/C(=N\\[N+](=O)[O-])NCc1cnc(Cl)s1",
    "EC50 / nM": 2950
  }
]

----------
Target: Dα1/Dβ1/Dβ2 nAChR (Drosophila melanogaster, UniProt P04755+P09478+P25162)
Test: cell-based
Set-up: species or system Xenopus laevis oocytes
pEC50: −log10 of the molar value.
METRIC: pEC50

[
  {
    "COMPOUND": "CN/C(=N\\[N+](=O)[O-])NCc1cnc(Cl)s1 [clothianidin]",
    "READOUT_NUMBER": 6.66
  }
]
